assay: xn = mol fraction of the nth substance listed, in the solute-free solvent; conditions: 328.15 K; x2 = 0.2
readout.type: solubility (g/100 g solution)

{"compound": "O=C(O)c1ccc(C(=O)O)o1 + C1CCOC1 + O", "numeric.readout": 5.73}
{"compound": "O=C(O)c1ccc(C(=O)O)o1 + O + COCCOCCOC", "numeric.readout": 2.56}
{"compound": "O=C(O)c1ccc(C(=O)O)o1 + O + COCCOC", "numeric.readout": 3.31}
{"compound": "O=C(O)c1ccc(C(=O)O)o1 + C1COCCO1 + O", "numeric.readout": 4.56}

----------
test: xn = mol fraction of the nth substance listed, in the solute-free solvent; settings: 323.15 K; x2 = 0.8
readout.type: solubility (g/100 g solution)

{"compound": "O=C(O)c1ccc(C(=O)O)o1 + C1COCCO1 + O", "numeric.readout": 3.11}
{"compound": "COC1=CC(=O)CC(C)C12Oc1c(Cl)c(OC)cc(OC)c1C2=O (centres undefined) + CC(=O)CC(C)C + CC(C)O", "numeric.readout": 1.79}
{"compound": "COC1=CC(=O)CC(C)C12Oc1c(Cl)c(OC)cc(OC)c1C2=O (centres undefined) + CC(C)=O + CC(C)O", "numeric.readout": 5.21}
{"compound": "CCCCOc1ccc(C(=O)CCN2CCCCC2)cc1.Cl + CCO + CCCCCC", "numeric.readout": 49.5}
